- TARGET UNDER TEST: T1, human IL-2Rγ (common cytokine receptor γ-chain) (human, UniProt P31785 23-262, limits assumed)
- T1 construct: Recombinant human IL-2Rγ protein coated on the ELISA plate or immobilised on the CM5 chip; also called hu IL-2R; CD132
- T1 sequence: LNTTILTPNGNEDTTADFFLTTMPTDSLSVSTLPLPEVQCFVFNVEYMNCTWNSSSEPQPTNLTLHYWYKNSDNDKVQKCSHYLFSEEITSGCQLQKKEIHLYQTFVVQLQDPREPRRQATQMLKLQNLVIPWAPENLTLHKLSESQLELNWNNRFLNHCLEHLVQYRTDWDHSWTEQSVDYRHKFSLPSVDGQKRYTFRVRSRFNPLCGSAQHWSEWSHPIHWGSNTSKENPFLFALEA
- MEASUREMENT PROTOCOL: SPR off-rate ranking, periplasmic extract over immobilised human IL-2Rγ
- Procedure: SPR was performed to determine dissociation rates using Biacore 3000 instrument (GE Healthcare). Briefly, human and mouse IL-2R proteins were immobilized on carboxylmethyl dextran sensor chip (CM5) at approximately 2500 RUs using amine coupling in acetate buffer (GE Healthcare). The VHH-containing P.E. were loaded with a flow rate of 30 uL/min and the off-rates were measured over a 120s period.
MEASURED QUANTITY: koff (s⁻¹)
Give bare numbers, in s⁻¹.

- BINDER: "FJ1427_P035MP07D12 (VHH, Tested as soluble VHH fragment in periplasmic extract (P.E.); also called Clone nr; 668) VHH: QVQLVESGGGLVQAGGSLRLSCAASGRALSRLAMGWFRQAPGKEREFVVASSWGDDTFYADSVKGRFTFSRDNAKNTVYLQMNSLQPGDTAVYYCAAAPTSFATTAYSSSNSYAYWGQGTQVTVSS"
  UNITS OF MEASURE: "s⁻¹"
  REPORTED RESULT: 0.00199

# batch size: 2; output koff per entry
1. FJ1427_P035MP07B12 (VHH, Tested as soluble VHH fragment in periplasmic extract (P.E.); also called Clone nr) VHH: EVQLVESGGGLVQAGGSLRLSCAASGRTLSRYAMGWFRQAPGKEREYVAIDSWGGDTFYADSVEGRFTFSRDNAKNEVYLQMNSLQPEDTAVYYCAGAPTSFATTAYSSSNSYRYWGQGTQVTVSS
2. FJ1427_P035MP07C11 (VHH, Tested as soluble VHH fragment in periplasmic extract (P.E.); also called Clone nr) VHH: QVQLVESGGGLVQAGASLRLSCAASGRTLSRYAMGWFRQAPGKEREFVAASSWGGDTYYADSVEGRFTFSRDNAKNAVYLQMNSLQPEDTAVYYCAGAPTSFATTAYSSSNSYAYWGQGTQVTVSS

1. 0.00153
2. 0.00485
